Assay: Solubility in excipient / parenteral vehicles
Format: physicochemical
Settings: aqueous with cosolvent or surfactant or cyclodextrin, Comparative solubility, vehicle 1
readout type: solubility

Incoming: Return reported solubility; argument: COc1ccc(C[C@H]2NC(=O)/C=C/C[C@@H]([C@H](C)[C@@H](O)[C@@H](Cl)c3ccccc3)OC(=O)[C@H](CC(C)C)OC(=O)C(C)(C)CNC2=O)cc1Cl
Outgoing: < 1 µg/mL

###

Assay: Solubility in excipient / parenteral vehicles
Assay type: physicochemical
Conditions: pH 4, aqueous buffer, Comparative solubility, vehicle 5
readout type: solubility

Incoming: // returns reported solubility for input COc1ccc(C[C@H]2NC(=O)/C=C/C[C@@H]([C@H](C)[C@@H](O)[C@@H](Cl)c3ccccc3)OC(=O)[C@H](CC(C)C)OC(=O)C(C)(C)CNC2=O)cc1Cl
Outgoing: < 1 µg/mL
